System: Trichophyton rubrum
Test Details: Antifungal activity against Trichophyton rubrum assessed as lowest dose level for total inhibition of fungal growth
Assay type: functional
Below: a set of entries, each annotated with reported Activity.

Recorded results for 5 molecules are shown here.
Clc1ccc(CC(Cn2ccnc2)c2ccccc2Cl)cc1.O=[N+]([O-])O (stereo not drawn)
<1 µg/mL
Clc1ccccc1C(Cc1c(Cl)cccc1Cl)Cn1ccnc1.O=[N+]([O-])O (stereo not drawn)
<1 µg/mL
Cc1ccccc1C(Cc1ccc(Cl)cc1Cl)Cn1ccnc1.O=[N+]([O-])O (stereo not drawn)
<1 µg/mL
Clc1ccc(CCC(Cn2ccnc2)c2ccc(Cl)cc2Cl)c(Cl)c1.O=[N+]([O-])O (stereo not drawn)
<1 µg/mL
Clc1ccc(CC(Cn2ccnc2)c2c(Cl)cccc2Cl)cc1.O=[N+]([O-])O (stereo not drawn)
<1 µg/mL

Activity recorded for this molecule, Clc1ccc(C(Cc2ccccc2Cl)Cn2ccnc2)cc1.O=[N+]([O-])O (stereo not drawn) , is <1 µg/mL

Activity measured on Clc1ccc(CC(Cn2ccnc2)c2ccccc2Br)c(Cl)c1.O=[N+]([O-])O (stereo not drawn) = <1 µg/mL

Given item Clc1ccc(CC(Cn2ccnc2)c2ccccc2Cl)c(Cl)c1.O=[N+]([O-])O (stereo not drawn) , the value recorded as its Activity is <1 µg/mL

Entry under test: Clc1ccc(C(Cc2ccccc2)Cn2ccnc2)c(Cl)c1.O=[N+]([O-])O (stereo not drawn) . Its Activity was <1 µg/mL

Lookup result for COc1ccc(CC(Cn2ccnc2)c2ccc(Cl)cc2Cl)cc1.O=[N+]([O-])O (stereo not drawn) ; measured Activity: <1 µg/mL

So for Cc1ccccc1C(Cc1ccc(Cl)cc1)Cn1ccnc1.O=[N+]([O-])O (stereo not drawn) , the logged Activity turned out to be 10 µg/mL

Memo: Clc1ccc(C(CCc2ccccc2Cl)Cn2ccnc2)c(Cl)c1.O=[N+]([O-])O (stereo not drawn) , reported Activity: <1 µg/mL

Activity recorded for this molecule, Clc1ccc(C(Cc2c(Cl)cccc2Cl)Cn2ccnc2)cc1.O=[N+]([O-])O (stereo not drawn) , is 10 µg/mL

Activity reading for Clc1ccc(C(Cc2ccc(Cl)cc2Cl)Cn2ccnc2)cc1.O=[N+]([O-])O (stereo not drawn) : <1 µg/mL

Input Clc1ccc(C(Cc2ccc(Br)cc2)Cn2ccnc2)c(Cl)c1.O=[N+]([O-])O (stereo not drawn) . Output Activity: <1 µg/mL

Record Clc1ccccc1CC(Cn1ccnc1)c1ccccc1Cl.O=[N+]([O-])O (stereo not drawn) . Reported Activity: <1 µg/mL

* * *

System: Phialophora verrucosa
Test Details: Antifungal activity against Phialophora verrucosa assessed as lowest dose level for total inhibition of fungal growth
Assay type: functional
Property Measured: Activity (µg/mL)
Express the result in µg/mL but write the number alone.

Please review the following examples before continuing.
Cc1ccccc1C(Cc1ccc(Cl)cc1Cl)Cn1ccnc1.O=[N+]([O-])O (stereo not drawn)
100
Clc1ccc(C(CCc2ccc(Br)cc2)Cn2ccnc2)c(Cl)c1.O=[N+]([O-])O (stereo not drawn)
100
COc1ccc(CCC(Cn2ccnc2)c2ccc(Cl)cc2Cl)cc1.O=[N+]([O-])O (stereo not drawn)
10
Clc1ccc(C(Cc2ccc(Br)cc2)Cn2ccnc2)c(Cl)c1.O=[N+]([O-])O (stereo not drawn)
10
Clc1ccc(C(Cc2ccc(Cl)cc2Cl)Cn2ccnc2)cc1.O=[N+]([O-])O (stereo not drawn)
100
Clc1ccc(CC(Cn2ccnc2)c2ccccc2Cl)cc1.O=[N+]([O-])O (stereo not drawn)
100
Clc1ccc(CC(Cn2ccnc2)c2ccccc2Cl)c(Cl)c1.O=[N+]([O-])O (stereo not drawn)
100
Cc1ccccc1C(Cc1ccc(Cl)cc1)Cn1ccnc1.O=[N+]([O-])O (stereo not drawn)
100

Measured Activity, Clc1ccc(C(Cc2c(Cl)cccc2Cl)Cn2ccnc2)cc1.O=[N+]([O-])O (stereo not drawn) : 100

// field: Activity; key: Clc1ccc(CCC(Cn2ccnc2)c2ccc(Cl)cc2Cl)cc1.O=[N+]([O-])O (stereo not drawn) ; value = 10

// Activity lookup, compound = Clc1ccc(C(Cc2ccccc2)Cn2ccnc2)c(Cl)c1.O=[N+]([O-])O (stereo not drawn) , result: 10

According to the records, this compound Clc1ccc(C(CCc2ccccc2Cl)Cn2ccnc2)c(Cl)c1.O=[N+]([O-])O (stereo not drawn) displays Activity of 100
